Data origin: paper PMC4159296

# testSystem: rat TRPM8 (Rattus norvegicus, UniProt Q8R455)
# Construct: expressed in transfected cells; host or cells: T-REx-CHO (Chinese hamster ovary), tetracycline-induced
# Sequence (Q8R455 whole entry): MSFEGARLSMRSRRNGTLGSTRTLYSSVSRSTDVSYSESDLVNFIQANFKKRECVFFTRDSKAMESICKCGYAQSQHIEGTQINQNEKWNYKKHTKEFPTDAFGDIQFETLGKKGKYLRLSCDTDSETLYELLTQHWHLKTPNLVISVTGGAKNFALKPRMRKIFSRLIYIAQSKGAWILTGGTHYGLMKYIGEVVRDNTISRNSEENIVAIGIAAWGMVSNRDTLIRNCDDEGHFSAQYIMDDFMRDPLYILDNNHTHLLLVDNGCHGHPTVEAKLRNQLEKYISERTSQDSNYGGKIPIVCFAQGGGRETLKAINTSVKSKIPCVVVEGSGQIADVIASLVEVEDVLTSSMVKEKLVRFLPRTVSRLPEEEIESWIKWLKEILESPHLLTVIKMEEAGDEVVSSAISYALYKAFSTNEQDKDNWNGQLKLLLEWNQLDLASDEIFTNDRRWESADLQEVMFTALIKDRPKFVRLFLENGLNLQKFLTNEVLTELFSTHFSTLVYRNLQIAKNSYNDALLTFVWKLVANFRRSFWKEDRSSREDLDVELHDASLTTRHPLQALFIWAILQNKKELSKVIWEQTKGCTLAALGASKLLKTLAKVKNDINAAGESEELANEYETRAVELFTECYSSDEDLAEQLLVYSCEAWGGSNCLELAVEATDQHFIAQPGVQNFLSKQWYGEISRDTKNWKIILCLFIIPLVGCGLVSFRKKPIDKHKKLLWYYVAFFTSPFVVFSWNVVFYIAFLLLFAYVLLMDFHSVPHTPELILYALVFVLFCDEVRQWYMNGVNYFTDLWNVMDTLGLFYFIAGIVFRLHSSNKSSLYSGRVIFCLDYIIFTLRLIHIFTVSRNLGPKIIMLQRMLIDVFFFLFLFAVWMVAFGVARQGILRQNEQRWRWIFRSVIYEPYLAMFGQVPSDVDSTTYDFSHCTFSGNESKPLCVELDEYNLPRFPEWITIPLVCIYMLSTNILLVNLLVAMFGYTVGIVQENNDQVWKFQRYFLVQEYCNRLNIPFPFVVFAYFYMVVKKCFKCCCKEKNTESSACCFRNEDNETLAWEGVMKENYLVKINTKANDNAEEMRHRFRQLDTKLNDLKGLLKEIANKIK
# assayText: agonist-induced 45Ca2+ uptake assay, CHO cells expressing rat TRPM8
# Format: cell-based
# conditionDescription: cold 10°C, mean ± SD, one experiment in triplicate wells, read-out: IC50, cold induced rat TRPM8 channel activation
measurementLabel: IC50

Report IC50, nothing else, for this molecule: `COc1cc(CN(CCN)C(=O)c2cccs2)ccc1OCc1ccccc1`
2 nM

---

# testSystem: rat TRPM8 (Rattus norvegicus)
# Construct: expressed in transfected cells; host or cells: T-REx-CHO (Chinese hamster ovary), tetracycline-induced
# assayText: agonist-induced 45Ca2+ uptake assay, CHO cells expressing rat TRPM8
# Type: cell-based
# conditionDescription: 100 µM menthol, mean ± SD, triplicate wells, read-out: IC50, menthol induced rat TRPM8 channel activation
measurementLabel: pIC50
// field semantics: pIC50 = negative decimal log of concentration (mol/L)

Report pIC50, nothing else, for this compound: COc1cc(CN(CCN)C(=O)c2cccs2)ccc1OCc1ccccc1 [M8-B]
8.70
